# method-description: NCI Yeast Anticancer Drug Screen. Data for the wt1 strain (AID 149);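 further: 0% = growth of vehicle-treated wt1 cultures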
# condition-info: S. cerevisiae wt1 strain (SPY 50644) growth inhibition; at 1.2 µM; active compounds read high
Compounds without any hit were thinned out: in the full panel of roughly 79,000, 15% have a hit.
readout: growth inhibition (%)
The reply should be a number in %, with the unit left off.

Past entries and their recorded results:
compound	unit-label	growth inhibition
Clc1c(Cl)c(Cl)c2c(nnn2C2CCCO2)c1Cl (configuration not stated)	%	0
COc1cc(NCc2ccc3nc(N)nc(N)c3c2C)cc(OC)c1OC	%	-1
Nc1nc(N)c2c(n1)CCC(S(=O)(=O)c1ccc3ccccc3c1)C2 (configuration not stated)	%	-2
COc1ccc(N=Nc2ccc3oc(=O)c(C(=O)Nc4ccccc4)cc3c2)cc1	%	-4
O=C1CC(=O)N(C2CCCCC2)C(=O)N1c1ccccc1S(=O)(=O)Oc1ccccc1	%	1

// growth inhibition lookup, key: `NNC(=S)Nc1cccc(Cl)c1`
-8

Could you tell me which growth inhibition is on file for `CC(=O)Oc1ccc(C(=O)c2ccccc2)c(O)c1` ?
-2
